experiment: protein stability index of a GFP-peptide fusion (GPS, HEK-293T) (PSI 1-6); higher = more stable; settings: treatment: MLN4924 1 uM, 8 h; c terminus: a fixed tail appended;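 also: 24-mer peptide tiles fused after GFP, lentivirally expressed, FACS-sorted into six equal bins by GFP/DsRed ratio, decoded by Illumina sequencing, PSI is the read-weighted mean bin number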
ENDPOINT LABEL: protein stability index
Hey, just send me the number, nothing else.

Summary for this sequence, IRKLVAEKLNIPWNHIRLQRTAKG [AASDHPPT] : protein stability index is 2.44

Summary for this sequence, PLLLLCNIKPRRYLTVVFEHDAWF [SLC29A1] : protein stability index is 3.06

Summary for this sequence, EYDVYSTFQSHEPEFDYLKSLEIE [PPP2R2C] : protein stability index is 4.3

Summary for this sequence, IAATELEKEESRREAEKQNYLAEH [TNNI2] : protein stability index is 5.37

Summary for this sequence, SRETECSRVGKQSFIITLGCNSVL [CARM1] : protein stability index is 2.09

Summary for this sequence, KKNNIKLYVRRVFIMDSCDELIPE [HSP90AB1] : protein stability index is 2.06

Summary for this sequence, LLPQERPLMQGPRTRPRKPIRCGE [KLHL20] : protein stability index is 3.98

Summary for this sequence, GSRISVSRSTSFRGGMGSGGLATG [KRT18] : protein stability index is 4.04

Summary for this sequence, PPGYSAWIKEEAAERYLYFPNWAM [SLC6A17] : protein stability index is 2.11

Summary for this sequence, IVEKRVLAHLAPLFDNPKLDKELR [INTS3] : protein stability index is 2.13

Summary for this sequence, QRQDPAAAQEGEDEGASAGQGPKP [GAGE1] : protein stability index is 5.7

Summary for this sequence, QNIQSWSNHSWNTQTWCTQSWNNQ [NANOGP8] : protein stability index is 2.61

Summary for this sequence, CDSTNAAIAKQALKKPIKGKQAPR [KMT5A] : protein stability index is 4.74

Summary for this sequence, PPAPAPLPPPSAPSLQPSRKLSPT [SCAMP3] : protein stability index is 5.32

Summary for this sequence, AALLILFAASLLTVFAWLLQYARG [C2CD2L] : protein stability index is 3.15

Summary for this sequence, NQSRCEMKTFVSPEAISPDLVKKI [TRIM15] : protein stability index is 4.14

Summary for this sequence, SKSKEEVSSLISEKTNGATPLLMA [FEM1C] : protein stability index is 4.49

Summary for this sequence, GRPSMVWLSANPCPHCGDRTFYDP [PRAME] : protein stability index is 2.33

Summary for this sequence, RNTGAYTSSGLATASFRTSKYLLE [TEKT4] : protein stability index is 3.16

Summary for this sequence, VHEHDGHLYLGSFRSPFLCRLSLQ [APMAP] : protein stability index is 2.33

Summary for this sequence, KFSYMWTINNFSFCREEMGEVLKS [SPOPL] : protein stability index is 2.19

Summary for this sequence, AMREAIQSYPSQDKPLPPPPPGSL [SOAT2] : protein stability index is 4.04

Summary for this sequence, TKFDRDGNRILDEKEQEKMRQDLE [PKD2L1] : protein stability index is 5.36

Summary for this sequence, VALLNKTNVKFLAITTDCLQILAY [CTNNB1] : protein stability index is 2.91

Summary for this sequence, CDDGGDGRGAVVPGAGLRRPTYTP [ZBTB22] : protein stability index is 4.25

Summary for this sequence, GVIQSVIGWKTVRMYPFQIHSIAL [CDS2] : protein stability index is 2.94

###

experiment: protein stability index of a GFP-peptide fusion (GPS, HEK-293T) (PSI 1-6); higher = more stable; settings: treatment: MLN4924 1 uM, 8 h; c terminus: a fixed tail appended
Please provide measured protein stability index for the entries that follow.
Hey, just send me the number, nothing else.

Summary for this sequence, MSPGPLDALSSPTSVQEADETTRS [C2CD2L] : protein stability index is 5.38

Summary for this sequence, PYQCSQCSKSYSRRSFLIEHQRSH [ZSCAN9] : protein stability index is 4.45

Summary for this sequence, DCMAALGLAYDRKKVSKAAILARI [SCD] : protein stability index is 2.29

Summary for this sequence, SPSVPCIFCEEHFPVAEQDKLLKH [ZNF277] : protein stability index is 4.37

Summary for this sequence, RLLQAQLQAQKEELQSLMHQPKGL [PBXIP1] : protein stability index is 2.9

Summary for this sequence, EKGLPLRKTHVLLGRSHDTVQEAA [MFSD9] : protein stability index is 4.15

Summary for this sequence, `LRASGSLCGPHAKAPYLCEATHEP` : protein stability index is 3.1

Summary for this sequence, QWFAMLRAEQDSEVGPQEINKEEL [GMCL1] : protein stability index is 3.81

Summary for this sequence, RSTCNVVQDEFLDTPCTNRGLPLL [DLC1] : protein stability index is 3.21

Summary for this sequence, TLGELKQNLSRSWHDVQVSSAYVK [TPD52L2] : protein stability index is 3.26

Summary for this sequence, VPPRRATISSWRNDRMSTRHDGYA [RBMY1A1] : protein stability index is 3.4

Summary for this sequence, RGLLEYFKAYIKIYQGEDLPHPKS [ATL3] : protein stability index is 2.56

Summary for this sequence, CCEFLKRQLDPSNCLGIRAFADTH [KLHL20] : protein stability index is 2.42

Summary for this sequence, SRKVTTNKLLLSIIILLELAILGG [VTI1B] : protein stability index is 2.84

Summary for this sequence, AQEDSLNKLALQYGCKVADIKKVN [LYSMD4] : protein stability index is 3.71

Summary for this sequence, IFMGYQNVEDEAETKKVLGLQDTI [PALM] : protein stability index is 3.35

Summary for this sequence, QKISLLHSCTCVLYTPSNEHFGIV [ALG2] : protein stability index is 2.61

Summary for this sequence, KKLKIFAMPMQDIKMILKMVQLDS [PRAME] : protein stability index is 2.75

Summary for this sequence, ITTKTADGKCAYRASYSDGKLKAP [MLH1] : protein stability index is 3.67

Summary for this sequence, WGFGLEELYGLALRFFKEKDGKAF [ACBD3] : protein stability index is 2.39

Summary for this sequence, FQILLLSDPSTIEASNFQMDRKTR [PNLIPRP1] : protein stability index is 2.42

Summary for this sequence, AKGHVKLSDFGLCTGLKKAHRTEF [STK38L] : protein stability index is 2.61

Summary for this sequence, LGGYVKIDLATWNFQFLPQVNGHP [PTPN9] : protein stability index is 2.74

Summary for this sequence, PWLWSEQQVCQWLLWATNEFSLVN [ETS2] : protein stability index is 2.42

Summary for this sequence, AALQRSLAAALAQHSVPLQLELRA [TRADD] : protein stability index is 2.46

Summary for this sequence, EEKKAKVAPPAKQAQQKKAPAKKA [BRD3] : protein stability index is 5.49

Summary for this sequence, ELDELLKEISRKRRSIRYGREVEL [PTPRD] : protein stability index is 2.96

###

assay: protein stability index of a GFP-peptide fusion (GPS, HEK-293T) (PSI 1-6); higher = more stable; settings: treatment: MLN4924 1 uM, 8 h; c terminus: a fixed tail appended
Assign classes using reported protein stability index values and the ranges lower segment: < 3; middle segment: ≥ 3 and < 4; upper segment: ≥ 4, please.

Ask: Kindly state the category for this sequence: LDKQMSRDEHRARAMKIPFTNDKI [NFE2L1]
Result: upper segment

Ask: Kindly state the category for this sequence: TSAEIELPDVEPAAFLALLRFLYS [BTBD1]
Result: lower segment

Ask: Kindly state the category for this sequence: LASQNKPLWQCYLGRFNDINVPIR [PDS5B]
Result: lower segment

Ask: Kindly state the category for this sequence: QLGTAGQGFSYSKSNGRGGSQAGG [MYOZ1]
Result: upper segment

Ask: Kindly state the category for this sequence: PSAAGAPASAPGEPRQRRLLLLDL [ANKRD9]
Result: middle segment

Ask: Kindly state the category for this sequence: SGSDSGGSSSSSSSSINSPDRASG [FAM104A]
Result: upper segment

Ask: Kindly state the category for this sequence: IWFIVPISCVICNDIMAYMFGFFF [CDS2]
Result: middle segment

Ask: Kindly state the category for this sequence: LVPDASKQRLMENTEDWRPRPGTG [PDLIM7]
Result: upper segment

Ask: Kindly state the category for this sequence: LNDIFHLLKSHTNVLSVNLPDNFT [TPH1]
Result: lower segment

Ask: Kindly state the category for this sequence: ERHCHLYTFHARFGEVRPYFYLGG [TRIM35]
Result: lower segment

Ask: Kindly state the category for this sequence: RQDLEDRYAEHVAATQALPQDSGT [C22orf31]
Result: upper segment

Ask: Kindly state the category for this sequence: ALQAPHSPSKTDGKELAGTMDGEG [PBXIP1]
Result: upper segment

Ask: Kindly state the category for this sequence: AFPSGHLLDAHILEWHDSLFQILS [ZNF511]
Result: lower segment

Ask: Kindly state the category for this sequence: DAWSGSNAYHIERLMSFRPICSAN [CRYBA1]
Result: lower segment

Ask: Kindly state the category for this sequence: PQQHFLEEKQASLWVQGDIFRSKL [CDC14A]
Result: middle segment

Ask: Kindly state the category for this sequence: RFDGLPAVLGFPGFSSGRHRWQVD [TRIM15]
Result: lower segment

Ask: Kindly state the category for this sequence: SSALACTLPTLPAKVYVGVKQEIA [NCF4]
Result: middle segment

Ask: Kindly state the category for this sequence: VHYLHSKRIAHFDLKPENIMLLDK [DAPK3]
Result: lower segment

Ask: Kindly state the category for this sequence: STRGAARPAQAIGTQPRATKHKCR [SPACA9]
Result: upper segment

Ask: Kindly state the category for this sequence: GKNPDVDTSFLPDRDREEEENRLR [FAM50A]
Result: upper segment

Ask: Kindly state the category for this sequence: MQEDRDGSCSTVGGVGYGDSKDCI [ZNF277]
Result: upper segment

Ask: Kindly state the category for this sequence: TSAVLKAGRQSVSGRKNSTSKDLV [C6orf223]
Result: upper segment
